Biological target: Human IDO1 (Homo sapiens (Human))
Sequence (P14902 whole entry): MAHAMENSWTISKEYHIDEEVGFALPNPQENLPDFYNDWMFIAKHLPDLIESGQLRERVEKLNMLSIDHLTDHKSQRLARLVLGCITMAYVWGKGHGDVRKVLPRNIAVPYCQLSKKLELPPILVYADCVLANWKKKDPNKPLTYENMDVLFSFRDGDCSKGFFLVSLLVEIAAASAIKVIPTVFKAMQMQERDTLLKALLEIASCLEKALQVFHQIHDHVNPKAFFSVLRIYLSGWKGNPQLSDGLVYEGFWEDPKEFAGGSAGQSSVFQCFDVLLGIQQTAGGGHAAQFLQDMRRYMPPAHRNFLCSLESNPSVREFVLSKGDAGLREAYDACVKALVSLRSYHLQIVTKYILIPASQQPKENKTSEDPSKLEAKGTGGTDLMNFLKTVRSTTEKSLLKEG
Assay: IDO Kynurenine Assay with Human IDO1/HEK293 Cells
Settings: HEK293 cells with human IDO1; read-out: HEK human IDO-1 (IC50)
measured parameter: IC50

input: Reported IC50 for Human IDO1 (Homo sapiens (Human)), given `COc1ccccc1Oc1ccc(-c2ccc(OC)c(C(=O)O)c2)cc1NC(=O)Nc1ccc(C)cc1` ?
output: 6.19 µM

input: Reported IC50 for Human IDO1 (Homo sapiens (Human)), given `CC(C)(C)c1ccccc1Oc1ccc(-c2cccc(C(=O)O)c2)cc1NC(=O)Nc1ccc(Cl)cc1` ?
output: 7.5 µM

input: Reported IC50 for Human IDO1 (Homo sapiens (Human)), given `CCCCc1cc(-c2ccccc2-c2nnn[nH]2)cc(NC(=O)Nc2ccc(C)cc2)c1OCCC` ?
output: 0.00592 µM

---

Target: UniProt P14902
Test: Kynurenine assay in IFN-γ-stimulated Hela cells
Type: cell-based
Details: 20 h, read-out: Hela Kyurenine (IC50)
pIC50: −log10 of the molar value.
Decide using pIC50: a value greater than or equal to 6 is fulfilled, a smaller one is not fulfilled.

input: pIC50 >= 6 for `Cc1ccccc1NC(=O)Nc1cc(-c2cc(Cl)cc(C(=O)O)c2)ccc1Oc1ccccc1C(C)(C)C` ?
output: fulfilled

input: pIC50 >= 6 for `CC(C)(C)c1ccccc1Oc1ccc(-c2ccc(C(=O)O)cc2)cc1NC(=O)Nc1ccc(OC(F)(F)F)cc1` ?
output: not fulfilled

input: pIC50 >= 6 for `CC(C)(C)c1ccccc1Oc1ccc(-c2ccc(C(=O)O)cc2)cc1NC(=O)Nc1ccccc1C(F)(F)F` ?
output: not fulfilled

input: pIC50 >= 6 for `C#CCOc1cccc(Oc2ccc(-c3ccc(OC)c(C(=O)O)c3)cc2NC(=O)Nc2ccccc2Cl)c1C` ?
output: fulfilled

input: pIC50 >= 6 for `CCc1ccc(NC(=O)Nc2cc(-c3ccc(OC)c(C(=O)O)c3)ccc2Oc2ccccc2C(C)(C)C)cc1` ?
output: fulfilled

input: pIC50 >= 6 for `COc1ccc(-c2ccc(Oc3ccccc3C3CC3)c(NC(=O)Nc3cccc(C)c3)c2)cc1C(=O)O` ?
output: fulfilled

input: pIC50 >= 6 for `COc1ccc(-c2cnc(Oc3ccccc3C(C)(C)C)c(NC(=O)Nc3cccc(C)c3)c2)cc1C(=O)O` ?
output: fulfilled

input: pIC50 >= 6 for `COc1ccc(-c2ccc(Oc3ccccc3C(C)(C)C)c(NC(=O)Nc3cccc(C)c3)c2)cc1C(=O)O` ?
output: fulfilled

input: pIC50 >= 6 for `CC(C)(C)c1ccccc1Oc1ccc(-c2cccc(C(=O)O)c2)cc1NC(=O)Nc1ccc(Br)cc1` ?
output: not fulfilled

---

Target: IDO (Homo sapiens (Human), UniProt P14902)
Sequence (P14902 whole entry): as above
Test: LLE_IDO_ABS_DR (IDO assay, method not described)
pIC50: −log10 of the molar value.
Decide using pIC50: a value greater than or equal to 6 is MET, a smaller one is NOT MET.

input: pIC50 >= 6 for `COc1ccc(-c2ccc(Oc3cccc4c3CCCC4)c(NC(=O)Nc3ccc(F)cc3F)c2)cc1C(=O)O` ?
output: MET

input: pIC50 >= 6 for `COc1ccc(-c2ccc(Oc3ccccc3C(C)C)c(NC(=O)Nc3ccc(C)cc3)c2)cc1C(=O)O` ?
output: NOT MET

input: pIC50 >= 6 for `CCCc1ccccc1Oc1ccc(-c2ccc(OC)c(C(=O)O)c2)cc1NC(=O)Nc1ccccc1C` ?
output: MET

input: pIC50 >= 6 for `O=C(Nc1ccc(Cl)cc1)Nc1cc(-c2ccc(C(=O)O)c(Cl)c2)ccc1Oc1ccccc1C(F)(F)F` ?
output: NOT MET

input: pIC50 >= 6 for `COc1ccc(-c2ccc(Oc3cccc(C)c3C)c(NC(=O)Nc3ccccc3C)c2)cc1C(=O)O` ?
output: MET

input: pIC50 >= 6 for `C/C=C/Cc1cc(-c2ccccc2C(=O)O)cc(NC(=O)Nc2ccc(C)cc2)c1OCCC` ?
output: MET

input: pIC50 >= 6 for `COc1ccc(-c2ccc(Oc3ccccc3C(C)C)c(NC(=O)Nc3cccc(C)c3)c2)cc1C(=O)O` ?
output: MET

input: pIC50 >= 6 for `C/C=C/Cc1cc(-c2cc(F)ccc2C(=O)O)cc(NC(=O)Nc2ccc(C)cc2)c1OCCC` ?
output: MET

input: pIC50 >= 6 for `Cc1ccc(NC(=O)Nc2cc(-c3ccccc3C(=O)O)ccc2OCc2ccccc2)cc1` ?
output: MET
